- Tested on: MCF10A
- test.summary: one-nucleolus phenotype percent effect (relative to siNT 0% and siNOL11 100%); higher = more cells with one nucleolus (ribosome biogenesis inhibition)
- condition.parameters: 20 nM; 72 h
Param threshold (8%) applies to one-nucleolus phenotype percent effect; output TRUE when value >= threshold, FALSE when value < threshold.

As a guide, the following entries are already answered.
| sequence.data | assigned.class |
| --- | --- |
| UUGCAUGUCAGAUUGUAAUUCCC [hsa-miR-4666b] | FALSE |
| UCAGGGUUGGUAGGGGUUGCU [hsa-miR-6823-5p] | TRUE |
| CAGUUAUCACAGUGCUGAUGCU [hsa-miR-101-5p] | TRUE |
| UUGGACUUUUUCAGAUUUGGGGAU [hsa-miR-5009-5p] | TRUE |
| UCUUGGAGUAGGUCAUUGGGUGG [hsa-miR-432-5p] | TRUE |

Then there is this sequence:
Incoming: Please indicate if the recorded one-nucleolus phenotype percent effect for CAGGGCUGGCAGUGACAUGGGU [hsa-miR-4446-3p] meets or exceeds 8%.
Outgoing: FALSE

Sourced from the supplement of paper PMC10899765
